- System: A549 (lung cancer)
- protocol.text: MTT assay, A549 cells
- Format: cell-based, human
- reported.conditions: SI = IC50 for normal cell line (HaCaT)/IC50 cancer cell line
Each item that follows carries a reported SI A549.
Keep the answer to the number alone.

The cases that follow already have their SI A549 on record.
| compound | SI A549 |
| --- | --- |
| Cc1ccc(S(=O)(=O)NCCCN2c3cc(Cl)ccc3Sc3cc4ccccc4nc32)cc1 | 1.0 |
| Clc1ccc2c(c1)N(Cc1cn(CSc3ccccc3)nn1)c1nc3ccccc3cc1S2 | 1.0 |
| C#CCN1c2cc(Cl)ccc2Sc2cc3ccccc3nc21 | 1.0 |
| N#Cc1ccc(Cn2cc(CN3c4cc(Cl)ccc4Sc4cc5ccccc5nc43)nn2)cc1 | 1.0 |
| FC(F)(F)c1ccc(-n2cc(CN3c4cc(Cl)ccc4Sc4cc5ccccc5nc43)nn2)cc1 | 1.0 |
| CS(=O)(=O)NCCCCN1c2cc(Cl)ccc2Sc2cc3ccccc3nc21 | 3.3 |
| CS(=O)(=O)NCCCN1c2cc(Cl)ccc2Sc2cc3ccccc3nc21 | 1.0 |
| Clc1ccc2c(c1)Nc1nc3ccccc3cc1S2 | 3.8 |

*Q* Tell me measured SI A549 for "CCOC(=O)NCCCN1c2cc(Cl)ccc2Sc2cc3ccccc3nc21" please.
*A* 1.1

----------
Each item that follows carries a reported IC50.
- Tested on: HaCaT (immortalized human keratinocytes)
- protocol.text: MTT assay, HaCaT normal cells
- Assay type: cell-based
- reported.conditions: Homo sapiens, HaCaT; MTT, 72 h, normal cells; read-out: IC50 HaCaT (Table 3)

The cases that follow already have their IC50 on record.
| compound | IC50 |
| --- | --- |
| Clc1ccc2c(c1)Nc1nc3ccccc3cc1S2 | 56.5 µM |
| Cc1ccc(S(=O)(=O)NCCCCN2c3cc(Cl)ccc3Sc3cc4ccccc4nc32)cc1 | < 100 µM |
| C#CCN1c2cc(Cl)ccc2Sc2cc3ccccc3nc21 | 71.7 µM |

*Q* Tell me measured IC50 for "CCOC(=O)NCCCCN1c2cc(Cl)ccc2Sc2cc3ccccc3nc21" please.
*A* > 100 µM

*Q* Tell me measured IC50 for "CCOC(=O)NCCCN1c2cc(Cl)ccc2Sc2cc3ccccc3nc21" please.
*A* > 100 µM

*Q* Tell me measured IC50 for "Clc1ccc2c(c1)N(CCN1CCCCC1)c1nc3ccccc3cc1S2" please.
*A* > 100 µM

*Q* Tell me measured IC50 for CN1CCCCC1CCN1c2cc(Cl)ccc2Sc2cc3ccccc3nc21 (stereo not shown) please.
*A* 12.7 µM

*Q* Tell me measured IC50 for "CC(=O)NCCCCN1c2cc(Cl)ccc2Sc2cc3ccccc3nc21" please.
*A* > 100 µM

*Q* Tell me measured IC50 for "CN(C)CCCN1c2cc(Cl)ccc2Sc2cc3ccccc3nc21" please.
*A* 62.3 µM

*Q* Tell me measured IC50 for "CCN(CC)CCN1c2cc(Cl)ccc2Sc2cc3ccccc3nc21" please.
*A* > 100 µM

*Q* Tell me measured IC50 for "CC(=O)NCCCN1c2cc(Cl)ccc2Sc2cc3ccccc3nc21" please.
*A* > 100 µM

*Q* Tell me measured IC50 for "N#Cc1ccc(Cn2cc(CN3c4cc(Cl)ccc4Sc4cc5ccccc5nc43)nn2)cc1" please.
*A* > 100 µM

*Q* Tell me measured IC50 for COc1cccc2c1C(=O)c1c(O)c3c(c(O)c1C2=O)C[C@@](O)(C(=O)CO)C[C@@H]3O[C@H]1C[C@H](N)[C@H](O)[C@H](C)O1 [DX, doxorubicin, reference compound] please.
*A* 0.3 µM
